# Target System: UniProt:Q8NER1
# Sequence (Q8NER1 whole entry): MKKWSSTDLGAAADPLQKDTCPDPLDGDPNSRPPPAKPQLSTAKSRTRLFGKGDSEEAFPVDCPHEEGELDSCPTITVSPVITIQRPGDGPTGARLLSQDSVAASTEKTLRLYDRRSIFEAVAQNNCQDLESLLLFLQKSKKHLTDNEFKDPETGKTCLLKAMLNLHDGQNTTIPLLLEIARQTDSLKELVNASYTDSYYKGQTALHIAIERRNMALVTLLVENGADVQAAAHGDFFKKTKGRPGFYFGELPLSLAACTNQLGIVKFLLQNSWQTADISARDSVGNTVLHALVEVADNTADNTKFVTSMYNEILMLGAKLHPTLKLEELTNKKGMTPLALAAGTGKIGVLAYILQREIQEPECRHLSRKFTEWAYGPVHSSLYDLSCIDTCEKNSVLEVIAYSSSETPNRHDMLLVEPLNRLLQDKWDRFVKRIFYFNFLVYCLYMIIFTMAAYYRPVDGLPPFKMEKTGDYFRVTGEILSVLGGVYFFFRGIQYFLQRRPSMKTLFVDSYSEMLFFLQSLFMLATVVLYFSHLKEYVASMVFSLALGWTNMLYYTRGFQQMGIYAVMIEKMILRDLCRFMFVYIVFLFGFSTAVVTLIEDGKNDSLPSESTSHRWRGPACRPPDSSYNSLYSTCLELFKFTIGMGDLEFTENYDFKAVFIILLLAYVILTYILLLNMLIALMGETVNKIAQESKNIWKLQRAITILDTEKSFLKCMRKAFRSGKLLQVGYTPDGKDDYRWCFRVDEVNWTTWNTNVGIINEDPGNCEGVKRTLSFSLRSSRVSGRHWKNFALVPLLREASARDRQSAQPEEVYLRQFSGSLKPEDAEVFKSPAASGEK
# Experiment Summary: Acid Activation Assay (pH 5.0, intracellular Ca2+, FLIPR)
# Format: cell-based
# Condition Description: percentage of the maximal pH 5.0-induced response remaining; recombinant HEK293 hTRPV1 cells; maximum concentration tested 37.5 μM
Recorded measurements of human TRPV1 H^+ (max % remain), one per entry
Property Label: human TRPV1 H^+ (max % remain) (%)

[[record]]
compound_smiles = "C[C@@]1(C(F)F)C[C@@H](NC(=O)Nc2ccc3c(c2)NC(=O)CO3)c2ccc(Cl)cc2O1"
target_system = "UniProt:Q8NER1"
property_label = "human TRPV1 H^+ (max % remain)"
unit_abbreviation = "%"
value = 76

[[record]]
compound_smiles = "O=C1CCc2ccc(NC(=O)N[C@@H]3CC(CF)(CF)Oc4c3ccc(Cl)c4F)cc2N1"
target_system = "UniProt:Q8NER1"
property_label = "human TRPV1 H^+ (max % remain)"
unit_abbreviation = "%"
value = 55

[[record]]
compound_smiles = "CCC1(CC)C[C@@H](NC(=O)Nc2ccc3c(c2)NC(=O)CC3)c2ccc(Cl)cc2O1"
target_system = "UniProt:Q8NER1"
property_label = "human TRPV1 H^+ (max % remain)"
unit_abbreviation = "%"
value = 12

[[record]]
compound_smiles = "C[C@@]1(CF)C[C@@H](NC(=O)Nc2ccc3c(c2)NC(=O)CO3)c2ccc(C(F)(F)F)cc2O1"
target_system = "UniProt:Q8NER1"
property_label = "human TRPV1 H^+ (max % remain)"
unit_abbreviation = "%"
value = 100

[[record]]
compound_smiles = "CN1Cc2ccc(NC(=O)N[C@@H]3CC(C)(C)Oc4c3ccc(F)c4Cl)cc2NC1=O"
target_system = "UniProt:Q8NER1"
property_label = "human TRPV1 H^+ (max % remain)"
unit_abbreviation = "%"
value = 51

[[record]]
compound_smiles = "O=C1CCc2ccc(NC(=O)N[C@@H]3CCOc4c3cccc4C(F)(F)F)cc2N1"
target_system = "UniProt:Q8NER1"
property_label = "human TRPV1 H^+ (max % remain)"
unit_abbreviation = "%"
value = 47

[[record]]
compound_smiles = "CN1C(=O)CCc2ccc(NC(=O)N[C@@H]3CC(C)(C)Oc4c3ccc(F)c4F)cc21"
target_system = "UniProt:Q8NER1"
property_label = "human TRPV1 H^+ (max % remain)"
unit_abbreviation = "%"
value = 84

[[record]]
compound_smiles = "Cn1c(=O)ccc2c(NC(=O)N[C@@H]3CC(CF)(CF)Oc4ccccc43)cccc21"
target_system = "UniProt:Q8NER1"
property_label = "human TRPV1 H^+ (max % remain)"
unit_abbreviation = "%"
value = 45

[[record]]
compound_smiles = "O=C1COc2ccc(NC(=O)N[C@@H]3CC(CF)(CF)Oc4c(F)cccc43)cc2N1"
target_system = "UniProt:Q8NER1"
property_label = "human TRPV1 H^+ (max % remain)"
unit_abbreviation = "%"
value = 99

[[record]]
compound_smiles = "CCC1(CC)C[C@@H](NC(=O)Nc2ccc3c(c2)NC(=O)N(CCO)C3)c2ccc(Cl)cc2O1"
target_system = "UniProt:Q8NER1"
property_label = "human TRPV1 H^+ (max % remain)"
unit_abbreviation = "%"
value = 0

[[record]]
compound_smiles = "O=C1COc2ccc(NC(=O)N[C@@H]3CCc4cc(Cl)ccc43)cc2N1"
target_system = "UniProt:Q8NER1"
property_label = "human TRPV1 H^+ (max % remain)"
unit_abbreviation = "%"
value = 110

[[record]]
compound_smiles = "Cn1c(=O)ccc2c(NC(=O)N[C@@H]3CCOc4cc(C(F)(F)F)ccc43)cccc21"
target_system = "UniProt:Q8NER1"
property_label = "human TRPV1 H^+ (max % remain)"
unit_abbreviation = "%"
value = 26

[[record]]
compound_smiles = "O=C1COc2ccc(NC(=O)N[C@H]3CC4(CCC4)Oc4ccc(F)cc43)cc2N1"
target_system = "UniProt:Q8NER1"
property_label = "human TRPV1 H^+ (max % remain)"
unit_abbreviation = "%"
value = 104

[[record]]
compound_smiles = "CC1(C)C[C@@H](NC(=O)Nc2ccc3c(c2)NC(=O)N(CCO)C3)c2cc(F)ccc2O1"
target_system = "UniProt:Q8NER1"
property_label = "human TRPV1 H^+ (max % remain)"
unit_abbreviation = "%"
value = 10

[[record]]
compound_smiles = "CCC1(CC)C[C@@H](NC(=O)Nc2ccc3c(c2)NC(=O)CO3)c2ccc(OC(F)(F)F)cc2O1"
target_system = "UniProt:Q8NER1"
property_label = "human TRPV1 H^+ (max % remain)"
unit_abbreviation = "%"
value = 71

[[record]]
compound_smiles = "CCC1(CC)C[C@@H](NC(=O)Nc2ccc3c(c2)N(C)C(=O)CC3)c2ccc(Cl)cc2O1"
target_system = "UniProt:Q8NER1"
property_label = "human TRPV1 H^+ (max % remain)"
unit_abbreviation = "%"
value = 37

